- Target or test system: Penicillin-binding protein 2X (Streptococcus pneumoniae R6) (UniProt P59676)
- Sequence (P59676 whole entry): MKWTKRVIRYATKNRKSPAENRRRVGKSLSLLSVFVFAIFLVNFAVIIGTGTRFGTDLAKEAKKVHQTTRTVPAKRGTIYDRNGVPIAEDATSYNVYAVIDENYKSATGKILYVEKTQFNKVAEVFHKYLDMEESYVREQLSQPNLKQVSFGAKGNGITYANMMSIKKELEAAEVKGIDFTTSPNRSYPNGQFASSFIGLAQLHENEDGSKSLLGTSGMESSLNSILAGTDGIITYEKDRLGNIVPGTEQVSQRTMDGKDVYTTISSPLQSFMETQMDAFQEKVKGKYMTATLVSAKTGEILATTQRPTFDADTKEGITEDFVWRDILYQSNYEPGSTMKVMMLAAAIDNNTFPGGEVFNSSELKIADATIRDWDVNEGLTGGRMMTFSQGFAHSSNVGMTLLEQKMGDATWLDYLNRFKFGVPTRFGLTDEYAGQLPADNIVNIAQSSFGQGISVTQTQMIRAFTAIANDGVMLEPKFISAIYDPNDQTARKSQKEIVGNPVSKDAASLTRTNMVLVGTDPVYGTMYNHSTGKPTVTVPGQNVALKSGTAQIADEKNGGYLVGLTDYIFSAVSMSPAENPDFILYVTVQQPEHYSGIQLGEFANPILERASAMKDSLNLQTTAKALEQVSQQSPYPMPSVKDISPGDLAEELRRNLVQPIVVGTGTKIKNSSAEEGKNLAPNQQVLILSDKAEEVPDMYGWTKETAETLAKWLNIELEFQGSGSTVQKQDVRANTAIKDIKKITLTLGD
- Test protocol: Inhibition of penicillin-sensitive Streptococcus pneumoniae R6 PBP2X preincubated for 1 hr before addition of substrate (R)-[2-(benzoylamino)propionylsulfanyl]acetic acid
The source made the active and inactive calls. The rule behind the calls is not given here.
Reported property: Activity

| Molecule smiles | Observed value |
| --- | --- |
| CC(=O)OCC1=C(C(=O)O)N2C(=O)[C@@H](NC(=O)Cc3cccs3)[C@H]2SC1 | Active |
| CO/N=C(\C(=O)N[C@@H]1C(=O)N2C(C(=O)O)=C(CSc3nc(=O)c(O)nn3C)CS[C@H]12)c1csc(N)n1 | Active |
| O=C(Cc1cccs1)N[C@@H]1C(=O)N2C(C(=O)O)=C(/C=C/c3ccc([N+](=O)[O-])cc3[N+](=O)[O-])CS[C@H]12 | Active |

src = ChEMBL document CHEMBL1155224
